Data credit: PubChem BioAssay (NCI)

Tested on: SF-539 CNS
Assay: NCI-60 one-dose screen, 48 h
Conditions: 10 µM unless noted
Compounds without any hit were thinned out: in the full panel of roughly 83,000, 20% have a hit. Calls of active or inactive are those of the source. How the source made its calls: active means growth percent below 10; inactive means the rest.
Use one of these outcomes when replying: t = active, f = inactive

Solved entries (count: 4):
> print(dat)
                                   molecule  category.label
1  COc1ccc(-c2nc3ccc(-c4nc5ccc(N6CCN(c7ccccc7)CC6)cc5[nH]4)cc3[nH]2)cc1OC               f
2  O=C1/C(=C/C(Cl)=C/c2ccccc2)SC(=S)N1CCc1ccc(O)cc1               t
3  COc1ccc2c(c1)O/C(=C\c1cccc(OCC(=O)Nc3nc4c(s3)CCCC4)c1)C2=O               f
4  O=C(O)c1ccc(N=CC(=O)c2ccc(-c3ccccc3)cc2)cc1               f

# input for lookup
Short answer needed: outcome of this test for "CC1=C/C(=C(\c2ccc(N(C)C)cc2)c2ccc([N+](C)(C)C)cc2)C=CC1=[N+](C)C" ?
f

====

System: IGROV1 ovarian
Test: NCI-60 one-dose screen, 48 h (100 = growth as untreated, 0 = no growth, -100 = all killed)
Conditions: 10 µM unless noted
This is part of a sample that, as a whole, favours compounds with a hit. Of some 83,000 tested, about 20% had one in any assay.
Flag rule - growth less than 80% flags 1; the remaining entries get 0.

Solved entries (count: 5):
Compound	Category Label
N#CN1CCC[C@H]1C(=O)N1CCc2c(-c3[nH]nc4ncccc34)cccc21	1
CCN=C1C=CC(=C(c2ccc(N)cc2)c2ccc(N(CC)CC)c(C)c2)C=C1	1
C=CCSSc1ncnc2c1ncn2C1OC(CO)C(O)C1O (stereo unspecified)	1
CN1CCN(CCCOc2cccc3nc(Nc4ccc(Cl)c(F)c4)ccc23)CC1	1
Cc1cc2c3ccccc3ccc2[n+]2ccccc12	1

Item "COc1ccc(/C=C/c2nc3ccccc3nc2/C=C/c2ccc(OC)cc2)cc1" : growth beneath 80%, strictly?
0

Item "N#Cc1c(N)n(CCNC(=O)c2ccccc2)c2nc3ccccc3nc12" : growth beneath 80%, strictly?
1

Item "N#Cc1cnn(-c2nc3c(Cl)cccc3s2)c1N" : growth beneath 80%, strictly?
0

Item "CN(C)CCN1C(=O)c2cccc3c(N)ccc(c23)C1=O" : growth beneath 80%, strictly?
1

Item "OCCNc1nccc(N2CCN(c3ccnc4cc(Cl)ccc34)CC2)n1" : growth beneath 80%, strictly?
1

Item "CC1=CC(=NN=c2cc(C)n([O-])c(C)c2)C=C(C)[N+]1=O" : growth beneath 80%, strictly?
0

Item "CC(=O)c1cc2c(N)c(C(=O)Nc3cccc(F)c3C)sc2nc1C" : growth beneath 80%, strictly?
0

Item "Cc1nc2ccccc2n1C(=O)C[C@@H]1NC(=S)NC1=O" : growth beneath 80%, strictly?
0

Item C/C1=C\CC[C@@]2(C)O[C@H]2[C@H]2OC(=O)C(CN3CCN(CC4C(=O)O[C@H]5[C@H]4CC/C(C)=C/CC[C@@]4(C)O[C@@H]54)CC3)[C@@H]2CC1 (stereo partly specified) : growth beneath 80%, strictly?
0

Item "O=C(/C=C/c1cccc([N+](=O)[O-])c1)c1ccc(O)c(CN2CCN(c3cc4c(cc3F)c(=O)c(C(=O)O)cn4C3CC3)CC2)c1" : growth beneath 80%, strictly?
1

Item "CCOC(=O)c1c(C)oc2ncnc(N3CCN(C(=O)COc4ccc(SC)cc4)CC3)c12" : growth beneath 80%, strictly?
0

Item "O=C(O)c1c(=O)cccc2ssc12" : growth beneath 80%, strictly?
1

Item "O=C1/C(=C(/c2ccccc2)N2CCOCC2)Cc2ccccc21" : growth beneath 80%, strictly?
1

Item "O=C1NC(=S)N[C@H]1CC(=O)n1cnc2ccccc21" : growth beneath 80%, strictly?
0
